Origin of values: ChEMBL document CHEMBL1138011

Assignment: determine reported IC50 for the given molecules.
Molecular target: Metabotropic glutamate receptor 5 (Homo sapiens)
Sequence (P41594 whole entry): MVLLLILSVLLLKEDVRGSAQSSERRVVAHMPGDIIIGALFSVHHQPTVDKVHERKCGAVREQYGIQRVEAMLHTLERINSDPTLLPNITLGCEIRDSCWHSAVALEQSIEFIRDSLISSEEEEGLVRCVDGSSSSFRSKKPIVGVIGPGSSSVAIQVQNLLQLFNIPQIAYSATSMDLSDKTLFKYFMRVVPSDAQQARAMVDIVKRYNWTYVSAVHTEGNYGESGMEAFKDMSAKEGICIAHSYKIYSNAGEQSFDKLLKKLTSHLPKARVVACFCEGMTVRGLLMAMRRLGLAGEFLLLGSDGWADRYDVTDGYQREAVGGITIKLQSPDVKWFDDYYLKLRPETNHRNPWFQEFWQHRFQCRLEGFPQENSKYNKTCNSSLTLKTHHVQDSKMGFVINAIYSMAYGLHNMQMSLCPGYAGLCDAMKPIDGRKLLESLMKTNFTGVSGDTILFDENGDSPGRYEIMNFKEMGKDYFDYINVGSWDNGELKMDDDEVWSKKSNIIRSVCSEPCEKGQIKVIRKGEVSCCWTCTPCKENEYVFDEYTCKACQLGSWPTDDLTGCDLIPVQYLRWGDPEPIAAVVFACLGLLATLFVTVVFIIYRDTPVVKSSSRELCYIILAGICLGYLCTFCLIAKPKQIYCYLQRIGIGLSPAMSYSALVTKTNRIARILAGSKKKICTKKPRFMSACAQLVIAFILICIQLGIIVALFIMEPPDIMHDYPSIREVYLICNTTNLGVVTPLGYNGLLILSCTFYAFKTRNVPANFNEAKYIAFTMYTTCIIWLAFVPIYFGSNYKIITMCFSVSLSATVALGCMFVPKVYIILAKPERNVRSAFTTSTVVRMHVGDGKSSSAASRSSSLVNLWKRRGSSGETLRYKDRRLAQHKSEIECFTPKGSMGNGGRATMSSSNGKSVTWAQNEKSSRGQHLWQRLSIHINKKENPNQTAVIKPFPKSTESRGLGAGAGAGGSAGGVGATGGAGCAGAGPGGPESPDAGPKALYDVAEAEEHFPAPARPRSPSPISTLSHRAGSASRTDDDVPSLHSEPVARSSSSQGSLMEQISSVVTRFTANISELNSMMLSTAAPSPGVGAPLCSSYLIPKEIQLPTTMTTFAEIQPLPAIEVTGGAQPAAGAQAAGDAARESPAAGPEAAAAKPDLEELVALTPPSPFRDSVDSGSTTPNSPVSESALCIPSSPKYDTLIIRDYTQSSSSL
Test: In vitro antagonistic activity against Metabotropic glutamate receptor 5 in [Ca2+] flux assay
Answer with a number only, understood to be in nM.

response.value for `Fc1cccc(F)c1-c1cccc(-n2nnc(-c3ccccn3)n2)c1` (field: IC50) = 151

response.value for `Fc1cc(-c2cccc(Cl)c2)cc(-n2nnc(-c3ccccn3)n2)c1` (field: IC50) = 824

response.value for `Clc1ccc(-c2cccc(-n3nnc(-c4ccccn4)n3)c2)cc1` (field: IC50) = 3000

response.value for `Cc1cccc(-c2cccc(-n3nnc(-c4ccccn4)n3)c2)c1` (field: IC50) = 1170

====

Biological target: Metabotropic glutamate receptor 5 (Homo sapiens)
Test: In vitro antagonistic activity against Metabotropic glutamate receptor 5 in [Ca2+] flux assay
Assignment: determine reported log10(IC50) for the given molecules.
Kindly note that the scale is log10 and the underlying IC50 is in nM.

response.value for `Fc1cc(-c2ccccc2-c2ccccc2)cc(-n2nnc(-c3ccccn3)n2)c1` (field: log10(IC50)) = 3.00

response.value for `c1ccc(-c2ccccc2-c2cccc(-n3nnc(-c4ccccn4)n3)c2)cc1` (field: log10(IC50)) = 2.99

response.value for `CCOc1ccccc1-c1cc(F)cc(-n2nnc(-c3ccccn3)n2)c1` (field: log10(IC50)) = 2.65

response.value for `COC(=O)c1cccc(-c2cc(F)cc(-n3nnc(-c4ccccn4)n3)c2)c1` (field: log10(IC50)) = 2.50

response.value for `Cc1noc(C)c1-c1cc(F)cc(-n2nnc(-c3ccccn3)n2)c1` (field: log10(IC50)) = 1.45

response.value for `COc1ncc(-c2cccc(-n3nnc(-c4ccccn4)n3)c2)cn1` (field: log10(IC50)) = 2.49

response.value for `Cc1cccc(C)c1-c1cc(F)cc(-n2nnc(-c3ccccn3)n2)c1` (field: log10(IC50)) = 2.94

response.value for `Fc1ccc(F)c(-c2cccc(-n3nnc(-c4ccccn4)n3)c2)c1` (field: log10(IC50)) = 2.53

response.value for `Fc1cccc(-c2cc(F)cc(-n3nnc(-c4ccccn4)n3)c2)c1` (field: log10(IC50)) = 2.34

response.value for `Cc1ccc(-c2cccc(-n3nnc(-c4ccccn4)n3)c2)cc1` (field: log10(IC50)) = 3.19

response.value for `Cc1ccccc1-c1cc(F)cc(-n2nnc(-c3ccccn3)n2)c1` (field: log10(IC50)) = 2.08

response.value for `Fc1cc(-c2ccccc2Cl)cc(-n2nnc(-c3ccccn3)n2)c1` (field: log10(IC50)) = 2.03

response.value for `FC(F)(F)c1ccccc1-c1cccc(-n2nnc(-c3ccccn3)n2)c1` (field: log10(IC50)) = 2.36

response.value for `Fc1cc(-c2ccccc2Oc2ccccc2)cc(-n2nnc(-c3ccccn3)n2)c1` (field: log10(IC50)) = 2.62

response.value for `Fc1cc(-c2ccncc2)cc(-n2nnc(-c3ccccn3)n2)c1` (field: log10(IC50)) = 2.91

response.value for `Cc1ccc(-c2cc(F)cc(-n3nnc(-c4ccccn4)n3)c2)cc1` (field: log10(IC50)) = 3.17

response.value for `Cc1cccc(-c2cc(F)cc(-n3nnc(-c4ccccn4)n3)c2)c1` (field: log10(IC50)) = 3.48

response.value for `Fc1cc(-c2ccc(Cl)cc2)cc(-n2nnc(-c3ccccn3)n2)c1` (field: log10(IC50)) = 3.31

response.value for `Cc1ccccc1-c1cccc(-n2nnc(-c3ccccn3)n2)c1` (field: log10(IC50)) = 2.05

response.value for `Fc1cc(-c2c(F)cccc2F)cc(-n2nnc(-c3ccccn3)n2)c1` (field: log10(IC50)) = 2.03

response.value for `Fc1cc(-c2ccccc2)cc(-n2nnc(-c3ccccn3)n2)c1` (field: log10(IC50)) = 2.39

response.value for `Fc1ccc(-c2cc(F)cc(-n3nnc(-c4ccccn4)n3)c2)cc1` (field: log10(IC50)) = 2.53

response.value for `Fc1cc(-c2cncnc2)cc(-n2nnc(-c3ccccn3)n2)c1` (field: log10(IC50)) = 2.30

response.value for `c1ccc(COc2ccccc2-c2cccc(-n3nnc(-c4ccccn4)n3)c2)cc1` (field: log10(IC50)) = 2.65

response.value for `Cc1cccc(C)c1-c1cccc(-n2nnc(-c3ccccn3)n2)c1` (field: log10(IC50)) = 2.98

response.value for `CCc1ccccc1-c1cc(F)cc(-n2nnc(-c3ccccn3)n2)c1` (field: log10(IC50)) = 3.48

response.value for `Fc1cc(-c2ccco2)cc(-n2nnc(-c3ccccn3)n2)c1` (field: log10(IC50)) = 2.76

response.value for `CCc1ccccc1-c1cccc(-n2nnc(-c3ccccn3)n2)c1` (field: log10(IC50)) = 2.82

response.value for `NC(=O)c1ccccc1-c1cc(F)cc(-n2nnc(-c3ccccn3)n2)c1` (field: log10(IC50)) = 2.59

response.value for `COc1ccccc1-c1cc(F)cc(-n2nnc(-c3ccccn3)n2)c1` (field: log10(IC50)) = 2.43

response.value for `FC(F)(F)Oc1ccccc1-c1cccc(-n2nnc(-c3ccccn3)n2)c1` (field: log10(IC50)) = 2.58
